Please provide measured IC50 for the entries that follow.
# Tested on: A549, human lung cancer cell line
# experiment summary: MTT cytotoxicity
# Format: cell-based
# reported conditions: Homo sapiens
*1 amine or outer side, *2 acyl side, *3 side chain or, on linkers, in order; H or OH if unused. Where a SMILES comes first, the peptide text is derived from it. [ ]: non-standard residue; d: D form. ξ: configuration not given here. Trp(1-(1,1-Me2-allyl)) = C=CC(C)(C)n1cc(C[C@H](N)C(=O)O)c2ccccc21; Tyr(3-NO2) = N[CH](Cc1ccc(O)c([N+](=O)[O-])c1)C(=O)O; X1 = CC(C)(C1CO1)n1cc(CC(N[*:1])C(=O)[*:2])c2ccccc21; X2 = CC(CC(C(=O)[*:2])N(C)[*:1])C(=O)O; Gly(E-crotyl) = C/C=C/C[C@H](N)C(=O)O; ξNle(4,5-dehydro) = CC=CCC(N)C(=O)O; NMeL = CN[CH](CC(C)C)C(=O)O

GET /value?item= C=CC(C)(C)n1cc(C[C@@H]2NC(=O)[C@H](C/C=C/C)NC(=O)[C@H](CC(C)C)NC(=O)[C@H](CC(C)C)N(C)C(=O)[C@H](C)NC(=O)[C@H](Cc3ccc(O)c([N+](=O)[O-])c3)NC(=O)[C@H](CC(C)C)N(C)C2=O)c2ccccc21 [compound 1, ilamycin B1] (cyclo(A[NMeL]L[Gly(E-crotyl)][Trp(1-(1,1-Me2-allyl))][NMeL][Tyr(3-NO2)])) &field=IC50 returns > 50 µM

For record CC=CCC1NC(=O)C(CC(C)C)NC(=O)C(CC(C)C(=O)O)N(C)C(=O)C(C)NC(=O)C(Cc2ccc(O)c([N+](=O)[O-])c2)NC(=O)C(CC(C)C)N(C)C(=O)C(Cc2cn(C(C)(C)C3CO3)c3ccccc23)NC1=O (stereo not drawn) [compound 5, ilamycin D] (cyclo([X2]L[ξNle(4,5-dehydro)][X1][NMeL][Tyr(3-NO2)]A); configuration not given here) the listed IC50 is > 50 µM

Sure, the documented IC50 for CC=CCC1NC(=O)C(CC(C)C)NC(=O)C(CC(C)C)N(C)C(=O)C(C)NC(=O)C(Cc2ccc(O)c([N+](=O)[O-])c2)NC(=O)C(CC(C)C)N(C)C(=O)C(Cc2cn(C(C)(C)C3CO3)c3ccccc23)NC1=O (stereo not drawn) [compound 2, ilamycin B2] (cyclo([ξNle(4,5-dehydro)][X1][NMeL][Tyr(3-NO2)]A[NMeL]L); configuration not given here) is 13.8 µM
